tgt: T1, human LILRB4 expressed on cells (human, UniProt Q8NHJ6 22-448)
T1 construct: whole, on cells; also called ILT3; CD85k
protocol.notes: FACS, CHO-stable cells expressing human LILRB4

- binder: "H7K3 variant 8, K3m4 (N/Q) (antibody, V domains shown) VH: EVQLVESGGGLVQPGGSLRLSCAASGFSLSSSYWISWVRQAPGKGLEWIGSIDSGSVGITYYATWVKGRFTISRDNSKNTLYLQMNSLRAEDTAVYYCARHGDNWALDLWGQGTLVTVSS VL: DIQMTQSPSTLSASVGDRVTITCRASQSIQSWLAWYQQKPGKAPKLLIYKASTLASGVPSRFSGSGSGTEFTLTISSLQPDDFATYYCQHGYIRGDLDNVFGGGTKVEIK"
  EC50 (pM): 480
- binder: "H7K3 variant 12, K3m8 (S/V) (antibody, V domains shown) VH: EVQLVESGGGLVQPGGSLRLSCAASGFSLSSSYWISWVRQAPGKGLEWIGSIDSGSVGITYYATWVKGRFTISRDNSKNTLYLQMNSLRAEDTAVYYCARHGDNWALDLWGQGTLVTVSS VL: DIQMTQSPSTLSASVGDRVTITCRASQSINVWLAWYQQKPGKAPKLLIYKASTLASGVPSRFSGSGSGTEFTLTISSLQPDDFATYYCQHGYIRGDLDNVFGGGTKVEIK"
  EC50 (pM): 402
- binder: "H7K3 (antibody, V domains shown, Humanized from rabbit antibody B4-193; also called humanized anti-LILRB4 antibody; WT) VH: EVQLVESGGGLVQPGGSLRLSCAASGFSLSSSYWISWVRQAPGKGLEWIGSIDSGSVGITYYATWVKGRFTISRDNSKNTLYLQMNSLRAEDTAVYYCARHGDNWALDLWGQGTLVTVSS VL: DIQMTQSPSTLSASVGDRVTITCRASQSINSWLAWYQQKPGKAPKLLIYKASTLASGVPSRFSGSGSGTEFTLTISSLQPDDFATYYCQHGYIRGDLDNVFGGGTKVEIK"
  EC50 (pM): 543

The origin of these recorded values is patent US20230340114A1.
